molecular target: UniProt:P50052; experiment: Radioligand binding assay, displacement of 125I-[Sar1, Ile8]-Angiotensin II, hAT2R Cb23; details: displacement of 125I-[Sar1, Ile8]-Angiotensin II, human AT2R fused to Cb23, HEK-293 cell membrane preparations; read-out: Binding affinity on hAT2R_Cb23 IC50
Sequence (P50052 whole entry, looked up, the tested form may be a part): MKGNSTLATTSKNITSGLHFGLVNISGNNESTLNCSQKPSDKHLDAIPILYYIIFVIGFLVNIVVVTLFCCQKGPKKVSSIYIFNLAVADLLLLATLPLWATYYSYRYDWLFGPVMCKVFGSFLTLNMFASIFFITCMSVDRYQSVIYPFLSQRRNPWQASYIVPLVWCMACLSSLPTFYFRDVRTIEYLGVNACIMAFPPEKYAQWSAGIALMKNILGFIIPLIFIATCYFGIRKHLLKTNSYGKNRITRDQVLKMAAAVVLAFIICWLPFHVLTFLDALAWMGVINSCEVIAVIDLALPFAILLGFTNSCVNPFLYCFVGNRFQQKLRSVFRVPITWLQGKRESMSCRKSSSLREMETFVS
measured-metric: pIC50
Friendly reminder that pIC50 comes from taking -log10 of the concentration in mol/L.

API: value(readout= pIC50, system= UniProt:P50052, query= CC(C)Cc1ccc(-c2nn[nH]n2)c(N2CCN(Cc3nc(=O)c4cnn(C)c4[nH]3)CC2)c1 )
4.97

Same for CC(C)Cc1ccc(-c2nn[nH]n2)c(N2CCN(Cc3nc4ccccc4c(=O)[nH]3)CC2)c1
5.68

Next: CCS(=O)(=O)NC(=O)c1ccc(OC2CC2)cc1N1CCN(Cc2nc3ccccc3s2)CC1
5.60

Check CC(C)Cc1cc(F)c(-c2nn[nH]n2)c(N2CCN(Cc3ccc(Cl)cn3)CC2)c1 too.
6.28

Okay, and Cc1ccnc(CN2CCN(c3cc(CC(C)C)cc(F)c3-c3nn[nH]n3)C[C@@H]2C)c1 ?
8.10

Try this molecule too: CC(C)Cc1cc(F)c(-c2nn[nH]n2)c(N2CCN(Cc3cccnn3)[C@H](C)C2)c1
6.49

Then what about the molecule COc1c(C)cnc(CN2CCN(c3cc(CC(C)C)cc(F)c3-c3nn[nH]n3)CC2)c1C ?
5.97

* * *

Exercise: for every item that follows, state its recorded IC50.
target: UniProt:P50052; experiment: Radioligand binding assay, displacement of 125I-[Sar1, Ile8]-Angiotensin II, hAT2R Cb23; details: displacement of 125I-[Sar1, Ile8]-Angiotensin II, human AT2R fused to Cb23, HEK-293 cell membrane preparations; read-out: Binding affinity on hAT2R_Cb23 IC50
# value in µM; strip the unit string

Value lookup for IC50; key = CCCCNC(=O)NS(=O)(=O)c1ccc(C)cc1N1CCN(Cc2nc3ccccc3n2C)CC1 [Compound A-12]
1.27

Check CC(C)Cc1cc(F)c(-c2nn[nH]n2)c(N2CCN(Cc3ncc(F)cc3Cl)CC2)c1 [Compound A-206] too.
1.08

Request: Cc1cnc(C(C)N2CCN(c3cc(CC(C)C)cc(F)c3-c3nn[nH]n3)CC2)s1 (stereo not shown) [Compound A-225]
0.0541

Now try Cn1c(CN2CCN(c3cc(C(F)(F)F)ccc3-c3nn[nH]n3)CC2)nc2ccccc21 [Compound A-17] .
14.3

And the next one, Cc1cc(CC(C)C)cc(N2CCN(Cc3cccnn3)CC2)c1-c1nn[nH]n1 [Compound A-167] ?
0.0326

Try this compound next: CCc1cc(CC(C)C)cc(N2CCN(Cc3nc4ccccc4s3)CC2)c1-c1nn[nH]n1 [Compound A-136]
0.0121

Entry to check: CCNc1cc(-c2nn[nH]n2)c(N2CCN(Cc3cccnn3)CC2)cc1CC(C)C [Compound A-172]
3.52

Also need CC(C)Cc1cc(C2CC2)c(-c2nn[nH]n2)c(N2CCN(Cc3cccnn3)CC2)c1 [Compound A-169] , thanks.
0.0253

Now consider CCS(=O)(=O)NC(=O)c1ccc(CC(C)C)cc1N1CCN(Cc2nc3ccccc3s2)CC1 [Compound A-36] and answer again.
1.42

Consider next the compound CC(C)Oc1ccc(-c2nn[nH]n2)c(N2CCC(Cc3nc4ccccc4n3C)CC2)c1 [Compound A-25] in the same way.
8.31

And CC(C)Oc1cc(F)c(-c2nn[nH]n2)c(N2CCN(Cc3nc4ccccc4s3)CC2)c1 [Compound A-118] ?
1

And for CC(C)Cc1cc(F)c(-c2nn[nH]n2)c(N2CCN(C(=O)c3ccccn3)CC2)c1 [Compound A-215] ?
0.3

Fc1cc(-c2nn[nH]n2)c(N2CCN(Cc3nc4ccccc4s3)CC2)cc1C1CC1 [Compound A-124] ?
18.1

Ok, now CC(=O)Nc1cc(-c2nn[nH]n2)c(N2CCN(Cc3nc4ccccc4s3)CC2)cc1C1CC1 [Compound A-131]
13.3

Another compound: Cn1c(CN2CCN(c3ccccc3-c3nn[nH]n3)CC2)nc2ccccc21 [Compound A-15]
42.9

Ok, now CC(C)Cc1ccc(-c2nn[nH]n2)c(N2CCN(Cc3nccs3)CC2)c1 [Compound A-97]
0.757

And the next one, CC(C)Cc1cc(F)c(-c2nn[nH]n2)c(N2CCN(C(C)c3ccccn3)CC2)c1 (stereo not shown) [Compound A-214] ?
0.0386

Also, CC(C)Cc1ccc(-c2nn[nH]n2)c(N2CCN(Cc3ccc(C(F)(F)F)cn3)CC2)c1 [Compound A-85] please.
2.03

Another compound to look at: O=[N+]([O-])c1ccc2nc(N3CCN(Cc4ccccc4-c4nn[nH]n4)CC3)sc2c1 [Compound A-07]
28.8
